Source of measurements: PubChem BioAssay (NCI)

# System: CCRF-CEM leukemia
# measurement.notes: NCI-60 one-dose screen, 48 h
# study.conditions: 10 µM unless noted
Compounds without any hit were thinned out: in the full panel of roughly 83,000, 20% have a hit. Active and inactive are the calls of the source. How the source made its calls: active means growth percent below 10; inactive means the rest.
Outcomes: 1 (active), -1 (inactive)

compound	class
O=C(N/N=C/c1ccc(OC(F)F)c(OC2CCCC2)c1)c1cnn2c1NC(c1ccccc1)C2 (stereo not given)	-1
CC1=C(C/C=C(\C)CCC[C@H](C)CCC[C@H](C)CCCC(C)C)C(=O)c2ccccc2C1=O	-1
COc1ccc(-n2ncc3c4nc(OC)c(S(=O)(=O)c5ccccc5)cc4ccc32)cc1	-1
CCOC(=O)c1cnn(CC(O)c2ccc(F)cc2)c1NC(=O)Nc1ccccc1F (stereo not given)	-1
O=c1[nH]c(=O)n(Cc2ccc(F)cc2)cc1F	-1
O=C1N/C(=C\c2ccccc2)c2ncccc21	-1
Cc1nn(-c2ccccc2)c2nc3nc4c(c(N)c3c(-c3ccc(Cl)cc3)c12)CCC4	-1
COc1ccc(/C=C2\CN(Cc3cn(CCCNc4ccnc5cc(Cl)ccc45)nn3)C/C(=C\c3ccc(OC)cc3)C2=O)cc1	1
CN1CCN(CCCn2c3c(sc4ncccc43)c(=O)n3nnc(-c4ccccc4)c23)CC1	1
CC1CCCCN1S(=O)(=O)c1ccc(CN=C=S)cc1 (stereo not given)	-1

* * *

# System: RPMI-8226 leukemia
# measurement.notes: NCI-60 one-dose screen, 48 h (100 = growth as untreated, 0 = no growth, -100 = all killed)
# study.conditions: 10 µM
The panel holds about 83,000 compounds, 20% with a hit somewhere; the sample as a whole holds those more often.
Here the recorded growth is given for each entry.
readout.type: growth (%)

compound	value.measured
CC(=O)Nc1ccc(S(=O)(=O)N/N=C\c2ccc(Cl)c(Cl)c2)cc1	92.5
CC(=O)Nc1ccc(Sc2ccc([N+](=O)[O-])o2)cc1	9.87
CCCCCCCCCCCCCCn1c2ccccc2c2c3c(c4c5cc(OC)ccc5oc4c21)C(=O)NC3=O	112
O=C1c2c(c3c4cc(Br)ccc4[nH]c3c3ccc4ccccc4c23)C(=O)N1O	58.9
Cc1c(C)n(CC(O)CNC2CCCCC2C)c2ccccc12 (stereo not given)	-10.6
O=C(NC1CC1)c1cc2n(n1)CC(c1ccccc1)N2 (stereo not given)	112
CNc1ccc(Br)cc1-c1n[nH]c(=O)[nH]c1=O	104
CCCCc1ccc(C(O)(CCN2CC3CCC(CC3)C2)c2ccccc2)cc1 (stereo not given)	72.2
COc1cc(/C=N/NC(=O)c2cnn3c2NC(c2ccccc2)C3)cc(OC)c1OC (stereo not given)	96.7
CCOc1ccc(-c2cnnn2-c2nonc2-n2cccc2)cc1	12.5

* * *

# Test system: NCI-H23 lung
# measurement.notes: NCI-60 one-dose screen, 48 h
# study.conditions: 10 µM unless noted
The panel holds about 83,000 compounds, 20% with a hit somewhere; the sample as a whole holds those more often. Calls of active or inactive are those of the source. Rule for the calls: active = growth percent below 10; inactive = the rest.
Classes used: active, inactive

compound	assayed.target	class
CC(=O)Nc1ccccc1-c1n[nH]c(=O)[nH]c1=O	NCI-H23 lung	inactive
COc1cccc2c(=O)c3c(sc12)c(NCCN(C)C)nc1ccccc13	NCI-H23 lung	inactive
NC(=O)c1cccc(-n2ccc3cc(NC(=O)Nc4ccc(Cl)c(Cl)c4)ccc32)n1	NCI-H23 lung	inactive
Nc1nc(-c2ccnc(Cl)c2)nn1-c1nc2ccccc2s1	NCI-H23 lung	inactive
CN1CCC(OC2c3ccccc3CCc3ccccc32)CC1	NCI-H23 lung	inactive
CCCOC(=O)c1ccc2c(c1)[N+](=O)C(C(=O)c1ccccc1)=C(C(F)(F)F)[N+]2=O	NCI-H23 lung	active
N#Cc1ccc(C(F)(F)F)nc1N1CCC(C(=O)Nc2ccc(Cl)cc2)CC1	NCI-H23 lung	inactive
CC1=CN2C(=NC3=C(CCCC/C3=C\c3ccccc3)C2c2ccccc2)S1 (stereo not drawn)	NCI-H23 lung	inactive
O=C1/C(=C/c2ccccc2F)CNC/C1=C\c1ccccc1F	NCI-H23 lung	active
Oc1ccc2ccccc2c1C1NN=C(c2ccccc2)S1 (stereo not drawn)	NCI-H23 lung	inactive
COC(=O)C1C2CC3c4[nH]c5cc(OC)ccc5c4CCN3CC2CC(OC2CCCCO2)C1OC (stereo not drawn)	NCI-H23 lung	inactive
Cl.Fc1c[c-]c(-c2ccccn2)c(F)c1.[Pt].c1ccc([PH+](CC[PH+](c2ccccc2)c2ccccc2)c2ccccc2)cc1	NCI-H23 lung	active
COc1c(O)c2c3c(c1OC)-c1ccccc1CC3N(S(=O)(=O)c1ccc(C)cc1)CC2 (stereo not drawn)	NCI-H23 lung	inactive
COC(=O)/C=C1/CCC2C3CCC4=CC(=O)C(Br)CC4(C)C3C(=O)CC12C (stereo not drawn)	NCI-H23 lung	inactive
COc1cc(Cn2cc(F)c(=O)[nH]c2=O)cc(OC)c1	NCI-H23 lung	inactive
COc1ccc(S(=O)(=O)ON=C2C=C(C)C(=O)C(C)=C2)cc1	NCI-H23 lung	inactive
CCOC(=O)c1c(Cl)c2c(n1Cc1ccc(OC)cc1)-c1oncc1CCC2	NCI-H23 lung	inactive
COc1cccc(C2CC(=O)Nc3cc4c(cc32)OCO4)c1OC (stereo not drawn)	NCI-H23 lung	inactive
O=c1nc(NO)[nH]c(=O)n1Cc1ccc(F)cc1	NCI-H23 lung	inactive
O=C1C(N2CCOCC2)=Cc2cccc3cccc1c23	NCI-H23 lung	inactive
O=C1CCC(N2C(=O)c3cccc(NCCOCCOCCNC(=O)c4cc5c(o4)C(=O)c4ccccc4C5=O)c3C2=O)C(=O)N1 (stereo not drawn)	NCI-H23 lung	active
COC(=O)c1c2c(c(C)[n+]([O-])c1C)C(=O)C=C(NCc1ccc(Cl)cc1)C2=O	NCI-H23 lung	active
CC(=O)Nc1ccc(Sc2ccc([N+](=O)[O-])o2)cc1	NCI-H23 lung	inactive
Clc1ccc2c(c1)C[C@H]1C[C@@H](c3cccs3)N2O1	NCI-H23 lung	inactive
CCCN(CCC)c1ccc(/C=C/c2ccc3cc(OCC)ccc3n2)cc1	NCI-H23 lung	inactive
Cc1c(C(=O)Nc2nc(-c3ccccc3)cs2)nnn1-c1ccccc1Br	NCI-H23 lung	inactive
CCN1CCN(C(=S)SCC(=O)Nc2nc3ccc(OC)cc3s2)CC1	NCI-H23 lung	inactive
COc1cc(CNCCN2C(=O)c3ccc4c5c(ccc(c35)C2=O)C(=O)N(CCNCc2cc(OC)c(OC)c(OC)c2)C4=O)cc(OC)c1OC	NCI-H23 lung	active
Oc1ccccc1/C=N/Nc1nc2ccccc2s1	NCI-H23 lung	inactive
Clc1ccc(C2=Nc3cccc4cccc(c34)N2)cc1Cl	NCI-H23 lung	inactive
COc1cc(-c2ccc3cc(OC)c(OC)c(OC)c3c2)cc(OC)c1OC	NCI-H23 lung	inactive
COC(=O)c1c2c(c(C)[n+]([O-])c1C)C(=O)C=C(NCc1cccc(OC)c1)C2=O	NCI-H23 lung	active
Cc1c(C(=O)Nc2nc(-c3ccccc3)cs2)nnn1-c1cccc2ccccc12	NCI-H23 lung	inactive

* * *

# System: UACC-62 melanoma
# measurement.notes: NCI-60 one-dose screen, 48 h
# study.conditions: 10 µM unless noted
This is part of a sample that, as a whole, favours compounds with a hit. Of some 83,000 tested, about 20% had one in any assay. Activity calls are given as the source filed them. Rule for the calls: active = growth percent below 10; inactive = the rest.
Possible outcomes: active, inactive

molecule	class
c1ccc2c(c1)oc1cc3c(cc12)nnc1cccn13	inactive
O=c1onc(-c2ccccc2)c2ccccc12	inactive
CCOC(=O)c1c(Cl)c2c(n1Cc1cc(OC)cc(OC)c1)-c1oncc1CCC2	inactive
Cc1nc(-c2ccccc2)cc2c(O)c(C(=O)N/N=C/Cc3ccccc3)[nH]c(=O)c12	inactive
O=C1/C(=C/c2ccc(Oc3ccccc3)cc2)N=C(c2ccccc2)N1CCc1cccs1	inactive
COc1ccc(NC(=O)c2ccc3c(c2)nc(-c2ccc(Cl)cc2)n3-c2cc(C(C)(C)C)[nH]n2)cc1	inactive
O=C(NCc1ccco1)C1CCN(S(=O)(=O)c2ccc(Cl)cc2)CC1	inactive
Cc1ccc(N=c2nc3sc4c(C)ccc(C)c4n3c(N)c2C#N)cc1	inactive
COC1(OC)C2(Cl)C=C(c3ccccc3)C1(Cl)C(Cl)=C2Cl (stereo unspecified)	inactive
O=C(Nc1ccc(Cl)c(Cl)c1)OCn1ncc2ccc([N+](=O)[O-])cc21	inactive
Cn1c(=O)c2c(-c3ccccc3F)n(-c3ccc4c(c3)OCO4)cc2n(C)c1=O	inactive
CN1CCN(c2nc(-c3ccncc3)nc3sc4c(c23)CCCCCC4)CC1	inactive
CCCCNNC(=O)c1ccc(Br)cc1	inactive
COc1cc(-c2nc(SC(C)C)nc(Nc3ccccc3C)c2C#N)cc(OC)c1OC	inactive
Cc1ccc(C)c2c1sc1nc3nc4sc5ccccc5n4c(=N)c3c(=O)n12	inactive
COc1nc2c(cc1S(=O)(=O)c1ccccc1)CCc1c-2cnn1-c1cccc(Cl)c1	inactive
CC(C)(C)CC(C)(C)N(CSc1ccc(Cl)cc1)CSc1ccc(Cl)cc1	inactive
COc1ccc(Nc2nc(NCCNc3ccnc4cc(Cl)ccc34)nc(N3CCOCC3)n2)cc1	inactive
COC(=O)c1c2c(c(C)[n+]([O-])c1C)C(=O)C=C(NCc1cccc(OC)c1)C2=O	active
COc1ccc2nc(-n3nc(C)cc3C)c(-n3nc(C)cc3C)nc2c1	inactive
Cc1nc2ccc(Cl)cc2n1C	inactive
COc1c2c(c(OC)c3c1c(=O)c1ccccc1n3C)OCO2	active
CN1CCc2c(c3ccccc3c3ccccc23)C1	inactive
COc1ccc(/C=C2\SC(=O)N(CN3CCN(c4cc5c(cc4F)c(=O)c(C(=O)O)cn5C4CC4)CC3)C2=O)cc1	inactive
COc1ccc(-c2nn(-c3ccc(NC(=O)c4ccc(Cl)c(Cl)c4)cc3)cc2-c2ccncc2)cc1Cl	inactive
Cc1nc2nc(C(F)(F)F)[nH]c2nc1C	inactive
O=C1C(Br)=C(c2ccccc2)C(=O)C(Br)=C1c1ccccc1	inactive
Cc1ccc(S(=O)(=O)N2CCc3ccc(O)c4c3C2CCc2ccccc2-4)cc1 (stereo unspecified)	inactive
O=[N+]([O-])c1cc2c(cc1Br)-c1ccccc1C2	inactive
COc1cccc(-c2ccc3c(c2)C2CCN(Cc4ccccc4)C3C2)c1 (stereo unspecified)	inactive
NC(=O)c1nc2c([nH]c1=O)CCCC2	inactive
COc1cc(/C=C/C(=O)CC(=O)/C=C/c2cc(Br)c(OC)c(OC)c2)cc(Br)c1OC	inactive
Nc1cc(Br)c(-c2nnc(CCC(=O)c3nc4ccccc4[nH]3)o2)c(Br)c1	inactive
CCOC(=O)n1cc(C2=C(c3cn(C)c4ccccc34)COC2=O)c2ccccc21	inactive
CC1(C)CC2(C)OC(=N)C1(C#N)C2(C#N)C#N (stereo unspecified)	active
COC(=O)c1c2c(c(C)[n+]([O-])c1C)C(=O)C=C(NCc1ccc(Cl)cc1)C2=O	active
